Conditions: 328.15 K; 101.32 kPa; Liquid; Vibrating tube method
readout kind: mass density (kg/m3)

molecule	assay result
CCCCCC	627
CCCCCCC	653.6
CCOC(C)=O [ethyl acetate]	857.17
CCCCCCCC	674.15
CCCCCCCCCC	703.34
CCCCCCCCC	690.4

----------
Settings: 291.15 K; 101.32 kPa; Liquid; Vibrating tube method
readout kind: mass density (kg/m3)

molecule	mass density / kg/m3
CCCCCC	661.17
CCCCCCCCC	719.2
CCCCCCC	685.28
CCCCCCCC	704.13
CCCCC	628.22
CCOC(C)=O [ethyl acetate]	902.88
CCCCCCCCCC	731.22

Hello, the source for this data is the NIST ThermoML archive (doi:10.1021/je100832h), in case you need it.
